Data provenance is ChEMBL document CHEMBL3433997.

# system.name: Hexose transporter 1 (Plasmodium falciparum) (UniProt O97467)
# test.details: ST_JUDE_LEISH: Cytotoxicity at 2uM final concentration against transgenic Leishmania Mexicana promastigotes LmPfHT that are glucose transport deficient and complemented with the Plasmodium falciparum hexose transporter. Activity is measured by DNA content using SYBR green in vitro
# Format: functional
quantity.kind: inhibition

[[record]]
test_smiles = "Cc1ccc2c(=O)n(C)c(=O)n(C)c2n1"
test_result = "2.94%"

[[record]]
test_smiles = "COCc1nc(-c2ccccc2)nc(N2CCN(C(=O)NC(C)C)CC2)c1Cc1ccccc1F"
test_result = "6.85%"

[[record]]
test_smiles = "CCCn1c(=N)c(C(=O)NCCc2ccccc2)cc2c(=O)n3cccc(C)c3nc21"
test_result = "7.01%"

